Each entry below lists one item and its recorded YAP1 (% UTC) value.
- System: Yap1 mRNA
- Assay Method Text: Antisense inhibition of human Yap1 in A-431 cells by cEt gapmers, single dose (Example 3, RTS36584)
- Type: cell-based
- Run Parameters: Table 9; A-431 cells, 5,000 cells per well, free uptake, 2,000 nM, approximately 48 hours; RTS36584; normalized to RIBOGREEN; Yap1 mRNA relative to untreated control cells
Strand notation (5' to 3'): a small letter for the sugar, then the base; units joined by * are phosphorothioate-linked, units joined directly phosphodiester-linked; [ ] holds rarer units or linkages, { } end groups; capitals alone tell only the bases. k = constrained ethyl (cEt); [5mC] = 5-methylcytosine; d = 2'-deoxy (DNA)

Worked cases, answers included:
- Substance: "958541 (kG*kT*kA*dT*dT*d[5mC]*dT*dA*dT*d[5mC]*d[5mC]*dA*dG*kG*kG*kT; antisense) [Compound 958541]"
  YAP1 (% UTC): "4 % UTC"
- Substance: "958726 (antisense k[5mC]*kT*kG*dT*d[5mC]*dA*dG*dT*dT*dA*dT*d[5mC]*d[5mC]*kT*kA*kT) [Compound 958726]"
  YAP1 (% UTC): "3 % UTC"
- Substance: "958801 (antisense k[5mC]*kG*k[5mC]*dT*dA*dG*d[5mC]*dA*d[5mC]*dG*d[5mC]*dG*d[5mC]*kG*k[5mC]*kT) [Compound 958801]"
  YAP1 (% UTC): "131 % UTC"

In the following, a different substance is considered.
Request: Provide YAP1 (% UTC), system Yap1 mRNA, entry 958466 (antisense kG*kT*k[5mC]*dA*dT*dT*dA*dA*dG*dG*dA*dT*dG*kT*k[5mC]*kA) [Compound 958466]
Response: 9 % UTC

* * *

The following substances are listed with their measured IC50 values.
- Tested on: Yap1 mRNA
- Assay Method Text: Dose-dependent inhibition of human Yap1 in SNU-449 cells (Example 9, RTS36584)
- Format: cell-based
- Run Parameters: free uptake, linear regression on a log/linear plot
Strand notation (5' to 3'): a small letter for the sugar, then the base; units joined by * are phosphorothioate-linked, units joined directly phosphodiester-linked; [ ] holds rarer units or linkages, { } end groups; capitals alone tell only the bases. e = 2'-O-(2-methoxyethyl) (MOE); k = constrained ethyl (cEt); [5mC] = 5-methylcytosine; d = 2'-deoxy (DNA)

Worked examples follow.
- Substance: "1197270 (TTAAAGTGTATGTCAG; cEt gapmer with 2'-OMe nucleoside, phosphorothioate, further chemistry not given here) [compound 1197270]"
  Measured Target: "Yap1 mRNA"
  Measured Property: "IC50"
  Recorded Measurement: "< 30 nM"
- Substance: "1198611 (kA*kG*kT*dG*dT*dA*dT*dG*dT*d[5mC]*dA*dG*kA*kA*kG*eA; antisense) [compound 1198611]"
  Measured Target: "Yap1 mRNA"
  Measured Property: "IC50"
  Recorded Measurement: "< 30 nM"

Attention now shifts to the item below.
Request: Quote IC50 with test system Yap1 mRNA for 1198615 (kT*kT*kA*dA*dA*dG*dT*dG*dT*dA*dT*dG*kT*k[5mC]*kA*eG) [compound 1198615]
Response: < 30 nM
